STUDY_SYSTEM: B1R receptor of the rat (Rattus norvegicus, UniProt P97583)
Construct: host or cells: CHO K1 cells (Chinese hamster ovary), stably transfected
Sequence (P97583 1-337): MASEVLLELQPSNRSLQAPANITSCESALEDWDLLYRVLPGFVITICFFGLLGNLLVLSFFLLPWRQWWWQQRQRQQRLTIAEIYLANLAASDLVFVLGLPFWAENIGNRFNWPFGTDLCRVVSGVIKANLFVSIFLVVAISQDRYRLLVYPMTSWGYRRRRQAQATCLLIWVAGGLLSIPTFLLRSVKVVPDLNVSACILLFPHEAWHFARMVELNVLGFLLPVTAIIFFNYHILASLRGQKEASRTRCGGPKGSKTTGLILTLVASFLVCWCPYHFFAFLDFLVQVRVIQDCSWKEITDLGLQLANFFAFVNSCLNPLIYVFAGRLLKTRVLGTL
TEST_SUMMARY: Functional study on the bradykinin receptor 1 (B1R), FLIPR Ca2+ assay, rB1R cells
Type: cell-based
COND: test substance 10 μM; rB1R CHO K1 cells; agonist Des-Arg9-bradykinin 100 nM; % inhibition compared with the maximum achievable inhibition
Readings of B1R Antagonism, rat [10 μM] % Inhibition for the listed compounds
Use % as the unit, but write only the number.

The cases that follow already have their B1R Antagonism, rat [10 μM] % Inhibition on record.
COc1cc(C)c(S(=O)(=O)N2CCCCC2COCC(=O)N(CCN(C)C)Cc2ccccc2)c(C)c1 (stereo not shown) :: 99.56
COc1ccc(S(=O)(=O)N2Cc3ccccc3CC2COCC(=O)N2CCC(CCN3CCCCC3)CC2)cc1 (stereo not shown) :: 82.89
CN(C)C1CCN(C(=O)COCCC2CCCCN2S(=O)(=O)c2cccc3ccccc23)C1 (stereo not shown) :: 38.64

For record COc1cc(C)c(S(=O)(=O)N2CCCCC2COCC(=O)NCc2ccc(N3CCOCC3)cc2)c(C)c1 (stereo not shown) the listed B1R Antagonism, rat [10 μM] % Inhibition is 100.94

For record O=C(COCC1CCCCN1S(=O)(=O)c1c(Cl)cc(Cl)cc1Cl)N1CCC(c2cccnc2)C1 (stereo not shown) the listed B1R Antagonism, rat [10 μM] % Inhibition is 100.49

For record O=C(COCC1CCCCN1S(=O)(=O)c1cccc2ccccc12)N1CCCN(Cc2ccccc2)CC1 (stereo not shown) the listed B1R Antagonism, rat [10 μM] % Inhibition is 94.88

For record CN1CCC(N2CCN(C(=O)COCC3CCCCN3S(=O)(=O)c3c(Cl)cccc3Cl)CC2)CC1 (stereo not shown) the listed B1R Antagonism, rat [10 μM] % Inhibition is 102.52

For record CN(C)c1ccc(C2CCCCCN2C(=O)COCC2CCCCN2S(=O)(=O)c2cccc3ccccc23)cc1 (stereo not shown) the listed B1R Antagonism, rat [10 μM] % Inhibition is 26.41

For record COc1cc(C)c(S(=O)(=O)N2CCCCC2COCC(=O)N2Cc3ccncc3C2)c(C)c1 (stereo not shown) the listed B1R Antagonism, rat [10 μM] % Inhibition is 99.49

For record O=C(COCC1CCCN1S(=O)(=O)c1c(Cl)cc(Cl)cc1Cl)N1CCC(N2CCCCC2)CC1 (stereo not shown) the listed B1R Antagonism, rat [10 μM] % Inhibition is 103.58

For record O=C(COCC1CCCCN1S(=O)(=O)c1cccc2ccccc12)NCC1CCCN(Cc2ccccc2)C1 (stereo not shown) the listed B1R Antagonism, rat [10 μM] % Inhibition is 39.48

For record COc1cc(C)c(S(=O)(=O)N2CCCCC2COCC(=O)N2CCC(NCC(c3cccnc3)N3CCOCC3)CC2)c(C)c1 (stereo not shown) the listed B1R Antagonism, rat [10 μM] % Inhibition is 98.94

For record O=C(COCC1CCCCN1S(=O)(=O)c1cccc2ccccc12)NCc1ccc(CN2CCOCC2)cc1 (stereo not shown) the listed B1R Antagonism, rat [10 μM] % Inhibition is 30.54

For record COc1cc(C)c(S(=O)(=O)N2CCCCC2COCC(=O)NCc2ccc(N3CCN(C)CC3)cc2)c(C)c1 (stereo not shown) the listed B1R Antagonism, rat [10 μM] % Inhibition is 108.97
